target: Tyrosyl-DNA phosphodiesterase 1 (Homo sapiens, UniProt Q9NUW8)
Sequence (Q9NUW8 whole entry): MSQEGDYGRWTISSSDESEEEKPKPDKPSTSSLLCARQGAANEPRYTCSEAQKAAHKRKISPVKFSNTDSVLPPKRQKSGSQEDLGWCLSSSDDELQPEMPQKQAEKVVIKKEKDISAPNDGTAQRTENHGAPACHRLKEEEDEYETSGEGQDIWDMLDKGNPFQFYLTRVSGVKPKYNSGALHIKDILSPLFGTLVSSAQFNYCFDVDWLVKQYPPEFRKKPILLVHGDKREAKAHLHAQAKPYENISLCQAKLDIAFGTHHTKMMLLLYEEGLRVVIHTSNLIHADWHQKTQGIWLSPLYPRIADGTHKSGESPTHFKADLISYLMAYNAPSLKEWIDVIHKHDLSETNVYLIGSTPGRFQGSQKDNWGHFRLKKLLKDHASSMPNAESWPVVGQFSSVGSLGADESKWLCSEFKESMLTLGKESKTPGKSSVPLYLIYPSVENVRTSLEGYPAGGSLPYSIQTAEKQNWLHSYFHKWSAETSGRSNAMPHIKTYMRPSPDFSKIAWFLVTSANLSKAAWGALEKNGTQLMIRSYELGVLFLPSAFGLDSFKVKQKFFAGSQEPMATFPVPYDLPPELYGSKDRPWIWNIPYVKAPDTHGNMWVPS
endpoint: pIC50
To interpret pIC50, take it as minus log10 of a concentration measured in moles per litre.

Param readout= pIC50; system= Tyrosyl-DNA phosphodiesterase 1 (Homo sapiens, UniProt Q9NUW8); entry= "O=c1cc(O)cc([C@H]2[C@H](c3ccc(O)cc3)[C@H](c3cc(O)cc(=O)o3)[C@H]2c2ccc(O)cc2)o1" ; returns value. 6.00
